# systemName: human GnRH receptor (Homo sapiens)
# Construct: expressed in transfected cells; host or cells: CHO (Chinese Hamster Ovary) cells, membrane fraction
# Sequence (P30968 1-328): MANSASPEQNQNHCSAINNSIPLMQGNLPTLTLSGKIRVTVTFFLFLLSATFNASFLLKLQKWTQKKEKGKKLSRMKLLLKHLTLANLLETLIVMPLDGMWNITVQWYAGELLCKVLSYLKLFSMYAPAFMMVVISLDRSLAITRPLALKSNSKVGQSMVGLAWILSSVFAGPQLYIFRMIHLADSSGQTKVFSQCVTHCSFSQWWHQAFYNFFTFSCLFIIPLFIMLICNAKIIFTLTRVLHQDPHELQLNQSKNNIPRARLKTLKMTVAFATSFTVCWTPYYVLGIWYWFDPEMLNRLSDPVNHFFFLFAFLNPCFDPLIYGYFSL
# assayExplanation: Test for inhibition of ^125 I-leuprorelin binding to human GnRH receptor
# conditionSet: membrane fraction of CHO cells expressing human GnRH receptors, 25° C., 60 minutes, read-out: Binding Inhibitory Activity (IC50, μM) for human GnRH receptor
Just a reminder that ties go to 0.0: only IC50 strictly below 10 µM counts as 1.0.

[[record]]
molecule = "O=C1c2ccccc2C(=O)N1CCC(=O)N1c2ccccc2N(Cc2ccccc2)C(=O)[C@H]2CCC[C@H]21 (relative stereo)"
classification = 0.0

[[record]]
molecule = "O=C1[C@H]2CCC[C@H]2N(C(=O)CN2C(=O)c3ccccc3C2O)c2ccccc2N1Cc1ccccc1 (stereo partly drawn)"
classification = 0.0


Req: Threshold test, IC50 < 10 µM: COc1cc(OC)cc(C(=O)NCC(=O)N2c3ccccc3N(Cc3ccccc3)C(=O)[C@H]3CCC[C@H]32)c1 (relative stereo)
Resp: 0.0

Req: Please let me know if O=C1C2=C(CCCC2)C(=O)N1CC(=O)N1c2ccccc2N(Cc2ccccc2)C(=O)C2CCCC21 (stereo not drawn) shows IC50 below 10 µM.
Resp: 1.0

Req: Is IC50 strictly under 10 µM for the entry O=C1c2ccccc2C(=O)N1CC(=O)N1c2ccccc2N(Cc2cccc(O)c2)C(=O)[C@H]2CCC[C@H]21 (relative stereo) ?
Resp: 1.0

Req: Record O=C1c2ccccc2C(=O)N1CC(=O)N1c2ccccc2N(Cc2ccc3ccccc3n2)C(=O)[C@H]2CCC[C@H]21 (relative stereo) : is its IC50 strictly below 10 µM?
Resp: 1.0

====

# systemName: human GnRH receptor (Homo sapiens)
# Construct: expressed in transfected cells; host or cells: CHO (Chinese Hamster Ovary) cells, membrane fraction
# assayExplanation: Test for inhibition of ^125 I-leuprorelin binding to human GnRH receptor
# conditionSet: membrane fraction of CHO cells expressing human GnRH receptors, 25° C., 60 minutes, read-out: Binding Inhibitory Activity (IC50, μM) for human GnRH receptor
property: IC50 (µM)
Report as a plain number; the unit µM is understood.

[[record]]
molecule = "O=C1c2ccccc2C(=O)N1CC(=O)N1c2ccccc2N(Cc2ccc(-c3ccccc3)cc2)C(=O)[C@H]2CCC[C@H]21 (relative stereo)"
systemname = "human GnRH receptor (Homo sapiens)"
resultnumber = 2

[[record]]
molecule = "O=C1c2ccccc2C(=O)N1CC(=O)N1c2ccccc2N(Cc2ccc3ccccc3c2)C(=O)[C@H]2CCC[C@H]21 (relative stereo)"
systemname = "human GnRH receptor (Homo sapiens)"
resultnumber = 0.6

[[record]]
molecule = "O=C1c2cccnc2C(=O)N1CC(=O)N1c2ccccc2N(Cc2ccccc2)C(=O)[C@H]2CCC[C@H]21 (relative stereo)"
systemname = "human GnRH receptor (Homo sapiens)"
resultnumber = 5

[[record]]
molecule = "O=C1c2cccc3cccc(c23)C(=O)N1CC(=O)N1c2ccccc2N(Cc2ccccc2)C(=O)[C@H]2CCC[C@H]21 (relative stereo)"
systemname = "human GnRH receptor (Homo sapiens)"
resultnumber = 3

[[record]]
molecule = "O=C1c2ccc([N+](=O)[O-])cc2C(=O)N1CC(=O)N1c2ccccc2N(Cc2ccccc2)C(=O)[C@H]2CCC[C@H]21 (relative stereo)"
systemname = "human GnRH receptor (Homo sapiens)"
resultnumber = 2


// switching to the query molecule
// sample O=C1c2ccccc2C(=O)N1CC(=O)N1c2ccccc2N(Cc2ccncc2)C(=O)[C@H]2CCC[C@H]21 (relative stereo) , its IC50 was 4
